log(1/I50) listing for selected molecules.
# Tgt: Thymidylate synthase (Lactobacillus casei)
# Experiment: Inhibition of thymidylate synthetase in Lactobacillus casei
# Condition: Lacticaseibacillus casei
Respond using a number only.

> print(dat)
                                   molecule  value.reported
1  CCOC(=O)c1ccc(CNc2ccc3nc(N)nc(O)c3c2C)cc1            4.05
2  CN(Cc1ccc2nc(N)nc(O)c2c1)c1ccc(C(=O)NC(CCC(=O)O)C(=O)O)cc1 (stereo unspecified)             6.4
3  Nc1nc(=O)c2cc(NCc3ccc(C(=O)NC(CCC(=O)O)C(=O)O)cc3)ccc2[nH]1 (stereo unspecified)               5
4  Nc1nc(O)c2cc(COc3ccc(C(=O)NC(CCC(=O)O)C(=O)O)cc3)ccc2n1 (stereo unspecified)               4
5  Cc1c(NCc2ccc(C(=O)NC(CCC(=O)O)C(=O)O)cc2)ccc2nc(N)nc(N)c12 (stereo unspecified)             5.6

Record `Nc1nc(O)c2cc(NCc3ccc(C(=O)O)cc3)ccc2n1` . Reported log(1/I50): 4

Record Cc1c(NCc2ccc(C(=O)NC(CCC(=O)O)C(=O)O)cc2)ccc2nc(N)nc(O)c12 (stereo unspecified) . Reported log(1/I50): 4.3

###

# Tgt: Thymidylate synthase (Mus musculus) (UniProt P07607)
# Sequence (P07607 whole entry, looked up): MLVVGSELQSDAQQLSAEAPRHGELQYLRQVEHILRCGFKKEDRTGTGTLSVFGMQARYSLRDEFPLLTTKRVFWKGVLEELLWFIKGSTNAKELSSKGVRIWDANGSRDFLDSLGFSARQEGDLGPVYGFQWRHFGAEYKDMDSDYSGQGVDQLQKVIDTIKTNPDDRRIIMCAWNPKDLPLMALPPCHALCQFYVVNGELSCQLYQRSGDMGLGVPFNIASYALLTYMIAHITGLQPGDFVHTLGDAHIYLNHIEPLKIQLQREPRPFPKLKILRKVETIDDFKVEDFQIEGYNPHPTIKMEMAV
# Experiment: Inhibition of thymidylate synthetase in mouse L1210S cells
# Assay type: cell-based
Property name: log(1/I50)
Respond using a number only.

Example results:
> print(dat)
                                   molecule                                       tgt  value.reported
1  Nc1nc(N)c2cc(CNc3ccc(C(=O)NC(CCC(=O)O)C(=O)O)cc3)ccc2n1 (centres undefined)  Thymidylate synthase (Mus musculus) (UniProt P07607)               5
2  Cc1c(NCc2ccc(C(=O)NC(CCC(=O)O)C(=O)O)cc2)ccc2nc(N)nc(O)c12 (centres undefined)  Thymidylate synthase (Mus musculus) (UniProt P07607)            5.12
3  CN(Cc1ccc2nc(N)nc(S)c2c1)c1ccc(C(=O)O)cc1  Thymidylate synthase (Mus musculus) (UniProt P07607)            5.12

Could you now look at the following molecule, please?
Test item Nc1nc(O)c2cc(COc3ccc(C(=O)NC(CCC(=O)O)C(=O)O)cc3)ccc2n1 (centres undefined) ; Thymidylate synthase (Mus musculus) (UniProt P07607); reported log(1/I50) was 5

###

# Tgt: Dihydrofolate reductase (Mus musculus)
# Experiment: Inhibition of dihydrofolate reductase in mouse L1210R cells
# Format: cell-based
log(1/I50) listing for selected compounds.

Example results:
> print(dat)
                                   compound                                     tgt  value.reported
1  Nc1nc(N)c2c(Cl)c(CNc3ccc(Cl)c(Cl)c3)ccc2n1  Dihydrofolate reductase (Mus musculus)             8.7
2  Nc1nc(N)c2cc(NCc3ccc(C(=O)NC(CC(=O)O)C(=O)O)cc3)ccc2n1 (stereo unspecified)  Dihydrofolate reductase (Mus musculus)            7.36
3  NC(=O)CCC(NC(=O)c1ccc(NCc2ccc3nc(N)nc(N)c3c2)cc1)C(=O)O (stereo unspecified)  Dihydrofolate reductase (Mus musculus)            9.66
4  Nc1nc(N)c2cc(CNc3ccc(Cl)c(C(=O)NC(CC(=O)O)C(=O)O)c3)ccc2n1 (stereo unspecified)  Dihydrofolate reductase (Mus musculus)            8.37
5  Nc1nc(N)c2cc(CNc3ccc(Cl)c(C(=O)NC(CCC(=O)O)C(=O)O)c3)ccc2n1 (stereo unspecified)  Dihydrofolate reductase (Mus musculus)            8.03

Could you now look at the following compound, please?
Record `COc1cc(NCc2ccc3nc(N)nc(N)c3c2C)cc(OC)c1OC` . Reported log(1/I50): 8.92
